# TARGET_UNDER_TEST: KRAS G12D (Homo sapiens, UniProt P01116, G12D)
# Construct: AsPc-1-KRAS (G12D)-HiBit-KI cell (Pharmaron); host or cells: AsPc-1-KRAS (G12D)-HiBit-KI cells (HiBiT knock-in at the endogenous KRAS locus)
# Sequence (P01116 1-188 isoform P01116-2 G12D): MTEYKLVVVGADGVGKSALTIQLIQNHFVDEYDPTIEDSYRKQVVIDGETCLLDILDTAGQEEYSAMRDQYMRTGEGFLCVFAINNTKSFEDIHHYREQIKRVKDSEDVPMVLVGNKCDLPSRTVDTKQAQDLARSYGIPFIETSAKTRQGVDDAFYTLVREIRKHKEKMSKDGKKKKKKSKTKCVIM
# PROTOCOL_NOTES: KRAS G12D HiBit assay
# Type: cell-based
# TEST_PARAMETERS: AsPc-1-KRAS (G12D)-HiBit-KI cell, compound treatment for 24 hours; class symbols
Would you mind telling me the reported Dmax of each entry?

QUERY: Look up Dmax: C#Cc1c(F)ccc2cccc(-c3ncc4c(N5CCC[C@@](C)(O)C5)nc(OC[C@@]56CCCN5[C@H](COC(=O)NCCOCCOCCOCCOc5ccc7c(c5)n(C)c(=O)n7C5CCC(=O)NC5=O)CC6)nc4c3F)c12 (stereo partly shown)
RESULT: 15 to 50%

QUERY: # query: Dmax of entry CCc1c(F)ccc2cc(O)cc(-c3ncc4c(N5CCC[C@@](C)(O)C5)nc(OC[C@@]56CCCN5[C@H](COC(=O)N5CCN(CC7CCN(c8ccc9c(c8)n(C)c(=O)n9C8CCC(=O)NC8=O)CC7)CC5)CC6)nc4c3F)c12 (stereo partly shown)
RESULT: > 50%

QUERY: # Dmax lookup, item C[C@H]1CN(CC(=O)N2CCC(CN3CCC(c4ccc5c(c4)n(C)c(=O)n5C4CCC(=O)NC4=O)CC3)CC2)CCCN1c1nccc(-c2noc([C@]3(C)CCCc4sc(N)c(C#N)c43)n2)n1 (stereo partly shown)
RESULT: < 15%

QUERY: # get_value(readout='Dmax', item= CCc1c(F)ccc2cccc(-c3ncc4c(N5CCC[C@@](C)(O)C5)nc(OC[C@@]56CCCN5[C@H](COC(=O)N5CCC(CN7CCC(c8ccc9c(c8)n(C)c(=O)n9C8CCC(=O)NC8=O)CC7)CC5)CC6)nc4c3F)c12 (stereo partly shown) )
RESULT: > 50%

QUERY: Given C#Cc1c(F)ccc2cc(O)cc(-c3ncc4c(N5CCCCC5)nc(OCC5(CN6CCN(CC7CCN(c8ccc9c(c8)n(C)c(=O)n9C8CCC(=O)NC8=O)CC7)CC6)CC5)nc4c3F)c12 (stereo not shown) , state its recorded Dmax.
RESULT: > 50%

QUERY: Sample CCc1c(F)ccc2cc(O)cc(-c3ncc4c(N5CCC[C@@](C)(O)C5)nc(OC[C@@]56CCCN5[C@H](COC(=O)N5CCC(OCCCc7cccc8c7n(C)c(=O)n8C7CCC(=O)NC7=O)CC5)CC6)nc4c3F)c12 (stereo partly shown) — what was its Dmax?
RESULT: > 50%

QUERY: Which Dmax reading was recorded for the molecule C#Cc1c(F)ccc2cc(O)cc(-c3ncc4c(N5CCOCC5)nc(OCC5(CN6CCN(CC7CCN(c8ccc9c(c8)n(C)c(=O)n9C8CCC(=O)NC8=O)CC7)CC6)CC5)nc4c3F)c12 (stereo not shown) ?
RESULT: 15 to 50%

QUERY: Find the recorded Dmax belonging to CCc1c(F)ccc2cc(O)cc(-c3ncc4c(N5CCC[C@@](C)(O)C5)nc(OC[C@@]56CCCN5[C@H](COC(=O)N5CCC(CN7CCC(c8cc9c(cc8F)c(C8CCC(=O)NC8=O)nn9C)CC7)CC5)CC6)nc4c3F)c12 (stereo partly shown) and report it.
RESULT: > 50%

QUERY: I am curious: what Dmax value has been reported for CCc1c(F)ccc2cc(O)cc(-c3ncc4c(N5CCC[C@@](C)(O)C5)nc(OC[C@@]56CCCN5[C@H](COC(=O)N5CCC(CN7CCC(c8ccc9c(C%10CCC(=O)NC%10=O)nn(C)c9c8)CC7)CC5)CC6)nc4c3F)c12 (stereo partly shown) ?
RESULT: > 50%

QUERY: Param item = C#Cc1c(F)ccc2cc(O)cc(-c3ncc4c(N5CCOCC5)nc(OC[C@@]56CCCN5[C@H](COC(=O)N5CCC(CN7CCC(c8ccc9c(c8)n(C)c(=O)n9C8CCC(=O)NC8=O)CC7)CC5)CC6)nc4c3F)c12 (stereo partly shown) ; retrieve measured Dmax.
RESULT: > 50%

Data provenance is patent US12599672B2.
